A compilation of published pKi results with Sodium-dependent serotonin transporter (Rattus norvegicus, UniProt P31652).
pKi: −log10 of the molar value.
# if value of pKi reaches 7, tag Criterion met; if it stays below, tag Criterion not met

>>> df
                               smiles_input  qualitative_label
0  CCCCCCCCCN1CCN(c2ccc3cc([N+](=O)[O-])ccc3n2)CC1      Criterion met
1     NC(=NCc1ccccc1)NC(=O)c1nc(Cl)c(N)nc1N  Criterion not met

Please examine the following record next.
[ask] Quick check: does `Ic1ccc(O[C@@H](c2ccccc2)[C@H]2CNCCO2)cc1` have pKi greater than or equal to 7?
[reply] Criterion met
